Listing of entries alongside the reported Final percent concentration of active in concentrate.
test: Standard accelerated chemical stability test, HPLC of each active, 40° C. for thirty days
Format: physicochemical
settings: HPLC after 40° C. for thirty days, sealed container
measureName: Final percent concentration of active in concentrate (%)

>>> observedmeasurement("COc1c(Cl)ccc(Cl)c1C(=O)O")
1.091
>>> observedmeasurement("Cc1nn(-c2cc(NS(C)(=O)=O)c(Cl)cc2Cl)c(=O)n1C(F)F")
0.363
>>> observedmeasurement("CSC(=O)c1c(C(F)F)nc(C(F)(F)F)c(C(=O)SC)c1CC(C)C")
1.909
>>> observedmeasurement("O=C(O)COc1ccc(Cl)cc1Cl")
8.987
>>> observedmeasurement("O=C(O)c1c(Cl)ccc2cc(Cl)cnc12")
1.876

----------
test: Ambient storage stability test, HPLC, 25° C. for two and one-half months
Assay type: physicochemical
settings: final vs initial, 25° C. for two and one-half months
Listing of entries alongside the reported % Diff.
measureName: % Diff (%)

>>> observedmeasurement("Cc1nn(-c2cc(NS(C)(=O)=O)c(Cl)cc2Cl)c(=O)n1C(F)F")
0.26
>>> observedmeasurement("CSC(=O)c1c(C(F)F)nc(C(F)(F)F)c(C(=O)SC)c1CC(C)C")
"−2.83"
>>> observedmeasurement("O=C(O)c1c(Cl)ccc2cc(Cl)cnc12")
0.99
>>> observedmeasurement("COc1c(Cl)ccc(Cl)c1C(=O)O")
"−1.37"
>>> observedmeasurement("O=C(O)COc1ccc(Cl)cc1Cl")
"−0.53"

----------
test: Ambient storage stability test, HPLC, 25° C. for two and one-half months
Assay type: physicochemical
settings: HPLC after 25° C. for two and one-half months
Procedure: A further sample of the concentrate of Example 4 was tested under ambient storage conditions at 25° C. for two and one-half months. The sample was initially subjected to an HPLC test, and then again tested at the end of the storage period.
Listing of entries alongside the reported Final percent concentration of active in concentrate.
measureName: Final percent concentration of active in concentrate (%)

>>> observedmeasurement("Cc1nn(-c2cc(NS(C)(=O)=O)c(Cl)cc2Cl)c(=O)n1C(F)F [Sulfentrazone]")
0.380
>>> observedmeasurement("O=C(O)c1c(Cl)ccc2cc(Cl)cnc12 [Quinclorac]")
1.929
>>> observedmeasurement("COc1c(Cl)ccc(Cl)c1C(=O)O [Dicamba]")
0.933
>>> observedmeasurement("O=C(O)COc1ccc(Cl)cc1Cl [2,4-D]")
9.154
>>> observedmeasurement("CSC(=O)c1c(C(F)F)nc(C(F)(F)F)c(C(=O)SC)c1CC(C)C [Dithiopyr]")
1.921

----------
test: Standard accelerated chemical stability test, HPLC of each active, 40° C. for thirty days
Assay type: physicochemical
settings: HPLC before storage; concentrate of Example 4 (so in the source)
measureName: Initial percent concentration of active in concentrate (%)

>>> observedmeasurement("CSC(=O)c1c(C(F)F)nc(C(F)(F)F)c(C(=O)SC)c1CC(C)C")
1.977
>>> observedmeasurement("COc1c(Cl)ccc(Cl)c1C(=O)O")
1.141
>>> observedmeasurement("O=C(O)COc1ccc(Cl)cc1Cl")
9.203
>>> observedmeasurement("Cc1nn(-c2cc(NS(C)(=O)=O)c(Cl)cc2Cl)c(=O)n1C(F)F")
0.379
>>> observedmeasurement("O=C(O)c1c(Cl)ccc2cc(Cl)cnc12")
1.91

----------
test: Standard accelerated chemical stability test, HPLC of each active, 40° C. for thirty days
Assay type: physicochemical
settings: final vs initial, 40° C. for thirty days
Listing of entries alongside the reported % Diff.
measureName: % Diff (%)

>>> observedmeasurement("O=C(O)COc1ccc(Cl)cc1Cl [2,4-D]")
"−2.35"
>>> observedmeasurement("Cc1nn(-c2cc(NS(C)(=O)=O)c(Cl)cc2Cl)c(=O)n1C(F)F [Sulfentrazone]")
"−4.22"
>>> observedmeasurement("COc1c(Cl)ccc(Cl)c1C(=O)O [Dicamba]")
"−4.38"
>>> observedmeasurement("O=C(O)c1c(Cl)ccc2cc(Cl)cnc12 [Quinclorac]")
"−1.78"
>>> observedmeasurement("CSC(=O)c1c(C(F)F)nc(C(F)(F)F)c(C(=O)SC)c1CC(C)C [Dithiopyr]")
"−3.44"

----------
Listing of entries alongside the reported Initial percent concentration of active in concentrate.
test: Ambient storage stability test, HPLC, 25° C. for two and one-half months
Format: physicochemical
settings: HPLC before storage; concentrate of Example 4 (so in the source)
measureName: Initial percent concentration of active in concentrate

>>> observedmeasurement("O=C(O)c1c(Cl)ccc2cc(Cl)cnc12")
"1.91%"
>>> observedmeasurement("Cc1nn(-c2cc(NS(C)(=O)=O)c(Cl)cc2Cl)c(=O)n1C(F)F")
"0.379%"
>>> observedmeasurement("COc1c(Cl)ccc(Cl)c1C(=O)O")
"0.946%"
>>> observedmeasurement("CSC(=O)c1c(C(F)F)nc(C(F)(F)F)c(C(=O)SC)c1CC(C)C")
"1.977%"
>>> observedmeasurement("O=C(O)COc1ccc(Cl)cc1Cl")
"9.203%"
